Entries and their IC50
MEASURED ON: Plasma Kallikrein (Homo sapiens (Human))
Sequence (P03952 391-638): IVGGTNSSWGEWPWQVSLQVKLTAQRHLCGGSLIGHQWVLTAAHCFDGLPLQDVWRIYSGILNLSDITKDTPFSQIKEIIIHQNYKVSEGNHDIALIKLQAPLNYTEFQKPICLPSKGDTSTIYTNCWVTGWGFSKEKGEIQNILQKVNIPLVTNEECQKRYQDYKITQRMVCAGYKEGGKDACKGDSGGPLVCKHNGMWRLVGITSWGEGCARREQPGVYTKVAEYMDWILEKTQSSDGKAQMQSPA
Sequence (P03952 20-390 partner): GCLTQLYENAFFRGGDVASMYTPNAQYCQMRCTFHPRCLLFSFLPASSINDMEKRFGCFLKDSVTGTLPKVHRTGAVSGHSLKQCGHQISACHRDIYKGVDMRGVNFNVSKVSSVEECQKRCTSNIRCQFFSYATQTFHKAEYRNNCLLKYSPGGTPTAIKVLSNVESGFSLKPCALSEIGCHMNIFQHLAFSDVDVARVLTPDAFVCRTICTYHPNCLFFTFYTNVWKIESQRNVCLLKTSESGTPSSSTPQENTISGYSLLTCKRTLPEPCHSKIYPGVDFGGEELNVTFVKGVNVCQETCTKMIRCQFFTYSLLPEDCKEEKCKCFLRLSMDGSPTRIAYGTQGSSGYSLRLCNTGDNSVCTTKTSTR
TEST DETAILS: Determination of related protease inhibition: Plasma Kallikrein (fluorogenic substrate at Km)
APPLIED CONDITIONS: 25° C., read-out: IC50 (human PKal)

                                   molecule                               measured_on  experimental_readout  measured_value
0  Cc1cn2c(n1)CC(COc1cc(CNc3cccc4c(N)nccc34)ccn1)CC2 (stereo not drawn) [Example 4319]  Plasma Kallikrein (Homo sapiens (Human))                  IC50      3 to 10 µM
1  CNC(=O)c1cc(NCc2ccnc(OCC3CCN(C)CC3)c2)cc2ccncc12  Plasma Kallikrein (Homo sapiens (Human))                  IC50        > 100 µM
2  CC(C)N1CC2(CN(Cc3ccc(CNc4cccc5c(N)nccc45)c(F)c3)C2)C1  Plasma Kallikrein (Homo sapiens (Human))                  IC50     10 to 40 µM
3  CN1CC2CC1CC2COc1cc(CNc2cccc3c(N)nccc23)ccn1 (stereo not drawn)  Plasma Kallikrein (Homo sapiens (Human))                  IC50         > 40 µM
4  CN1CCC(COc2ccc(CNc3cccc4c(N)nccc34)cn2)CC1  Plasma Kallikrein (Homo sapiens (Human))                  IC50      3 to 10 µM

Q) Any idea what its IC50 is? The molecule is `CC(C)N1CCC(COc2ccc(CNc3ccc4c(N)nccc4c3)cn2)CC1`
A) 1 to 3 µM

Q) Would you mind doing Nc1ncc(Cl)c2cc(NCc3ccnc(OCC4CCn5cc(CO)nc5C4)c3)ccc12 (stereo not drawn) as well?
A) > 40 µM

Q) Would you mind doing `CN1CCC(COc2cc(CNc3cccc4c(N)nccc34)ccn2)CC1` as well?
A) > 20 µM

Q) Would you mind doing `CNc1cc(NCc2ccc(NCC3CCN(C)CC3)nc2)ccn1` as well?
A) > 100 µM
